Data provenance is patent US20260132197A1.

# test-target: T1, Human CD47-C33G (human, UniProt Q08722 19-135)
# T1 construct: also called CD47 mutein with C33G mutation
# T1 sequence (Q08722 19-135 C33G limits assumed): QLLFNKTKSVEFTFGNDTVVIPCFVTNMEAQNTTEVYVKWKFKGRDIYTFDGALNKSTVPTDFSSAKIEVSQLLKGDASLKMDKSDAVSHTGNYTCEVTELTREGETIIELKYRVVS
# assay-name: SPR, IgG captured, CD47 in flow; exp 1;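 also: biacore T200 SPR using IgG from supernatants of transfected HEK293 cells, rate constants fitted to association and dissociation curves, Kd derived from koff over kon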
# Lookup of reported koff keyed by entry
Use s⁻¹ as the unit, but write only the number.

q: What value of koff has been reported for the following binder? 108VH4.M4-VL1.M1 (antibody, V domains shown, also called original humanized 108C10A6 antibody) VH: EVQLVQSGAEVKKPGSSVKVSCKASGYSFTHHWIHWVRQAPGQGLEWMGMIDASDSETRLSQKFKDRVTITADKSTSTAYMELSSLRSEDTAVYYCARLGRYYFDYWGQGTTVTVSS VL: EIVLTQSPATLSLSPGERATLSCRASENVGTYISWYQQKPGQAPRLLIYGASNRYTGIPARFSGSGSGTDFTLTISSLEPEDFAVYYCGESYGHLYTFGGGTKVEIK
a: 0.00087

q: Lookup 108VH5.M6 / 108VL1.M5 (antibody, human IgG4 S228P, kappa, V domains shown, Full-length IgG4 (S228P), kappa; also called VH5.M6 VL1.M5) VH: EVQLVQSGAEVKKPGASVKVSCKASGYTFTHHYMHWVRQAPGQGLEWMGMIDASDSETRLSQKFKDRVTMTRDTSTSTVYMELSSLRSEDTAVYYCARLGRYYFDYWGQGTLVTVSS VL: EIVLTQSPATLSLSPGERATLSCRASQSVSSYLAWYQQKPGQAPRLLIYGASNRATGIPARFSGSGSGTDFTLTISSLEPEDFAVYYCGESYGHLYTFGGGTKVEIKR
a: 0.097
